Values from ChEMBL document CHEMBL5104179

System: Glucose-induced degradation protein 4 homolog (Homo sapiens) | Read-out: ΔTm

Solved cases (2 shown):
O=C(O)c1ccc(-c2ccc(Cl)cc2)o1
> 1 °C
NCc1ccccc1Oc1ccccc1
> 1 °C

Consider the record given below.
Lookup: Request the reported ΔTm associated with C[C@H](N)c1ccc(Cl)cc1
Found: > 1 °C
